B1: TRIM14 (parent)
chain: YARTPTLDPDTMHARLRLSADRLT

Variants of: B1
protocol_details: protein stability index of a GFP-peptide fusion (GPS, HEK-293T) (PSI 1-6); higher = more stable;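 also: lentivirally expressed fusions sorted by FACS into six bins by GFP to DsRed ratio, PSI derived from sequencing read proportions per bin multiplied by bin number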
condition_description: c terminus: a fixed tail appended

| mutations | protein stability index |
| --- | --- |
| A14S | 3.02 |
| T6S | 2.28 |
| D21Y | 1.6 |
| P9W | 2.17 |
| M12L | 2.43 |
| T6F | 2.24 |
| T24D | 3.87 |
| T6E | 2.94 |
| H13F | 2.63 |
| Y1E | 4.17 |
| R3Q | 3.81 |
| P9T | 2.58 |
| H13P | 3.06 |
| L18C | 2.62 |
| R17P | 2.84 |
| L16Q | 2.93 |
| D10P | 2.31 |
| Y1N | 3.52 |
| L7V | 3.33 |
| R3P | 1.76 |
| M12R | 3.07 |
| A14L | 2.81 |
| L18Q | 2.65 |
| M12T | 2.74 |
| A2C | 2.53 |
| D8L | 2.41 |
| T6N | 1.96 |
| T11N | 2.45 |
| T24W | 1.73 |
| T11Y | 2.9 |
| R22I | 2.74 |
| R17S | 3.01 |
| L18Y | 2.93 |
| S19Q | 2.72 |
| P5W | 2.37 |
| L23Q | 3.12 |
| L18R | 2.81 |
| D10V | 2.78 |
| A2Q | 2.71 |
| A20D | 2.83 |
| A2D | 3.32 |
| A20L | 2.04 |
| S19M | 2.06 |
| L7A | 2.75 |
| L7N | 2.54 |
| D8T | 2.45 |
| L16K | 3.01 |
| R17V | 2.31 |
| T6A | 2.64 |
| P9K | 3.15 |
| T24H | 2.39 |
| T6P | 2.3 |
| A14K | 1.83 |
| R15C | 1.85 |
| L16S | 3.52 |
| S19R | 2.88 |
| D21R | 2.02 |
| R17L | 2.29 |
| A2W | 2.5 |
| R15E | 3.25 |
| A2V | 1.89 |
| P9C | 2.1 |
| Y1T | 3.69 |
| D21L | 1.8 |
| T24G | 3.09 |
| L18N | 3.3 |
| A2P | 3.9 |
| D10F | 1.64 |
| L23N | 2.87 |
| T24K | 3.2 |
| D21A | 2.43 |
| Y1A | 3.59 |
| L23S | 2.73 |
| D10C | 2.22 |
| D21Q | 2.91 |
| D8Y | 1.8 |
| T4P | 2.95 |
| T6L | 2.56 |
| T4S | 2.47 |
| D8P | 2.41 |
| T6Y | 1.94 |
| P9I | 2.3 |
